# Target: Dihydrofolate reductase (Rattus norvegicus, UniProt Q920D2)
# Measurement Description: Inhibitory activity against dihydrofolate reductase(DHFR) from rat liver
# Assay type: functional
Parameter Measured: IC50 (nM)
Give just the number in nM; leave the unit off.

(Q) Look up IC50 of CN(c1ccc2ccccc2c1)c1ccc2nc(N)nc(N)c2n1 and report it.
(A) 9.9

----------
Recorded measurements of inhibition at 0.01 µM, one per entry
# System: SF-268
# Measurement Description: Inhibition of the growth of CNS cancer(SF-268) cell line at 0.01 uM
# Type: functional
# Measurement Parameters: Homo sapiens
Quick note: give the figure in %, leave out the unit.

Look over these answered cases.
(Q) Answer with reported inhibition at 0.01 µM of COc1ccc(N(C)c2ccc3nc(N)nc(N)c3n2)cc1
(A) 68

(Q) Determine from records and report inhibition at 0.01 µM for COc1cc(N(C)c2ccc3nc(N)nc(N)c3n2)cc(OC)c1OC
(A) 61

(Q) Could you please provide reported inhibition at 0.01 µM for CN(c1ccc2ccccc2c1)c1ccc2nc(N)nc(N)c2n1 ? Thanks!
(A) 52

(Q) Please give measured inhibition at 0.01 µM of the following entry: COc1ccc(OC)c(N(C)c2ccc3nc(N)nc(N)c3n2)c1
(A) 57

Here's the next entry for you.
(Q) Assign inhibition at 0.01 µM to the following record: COc1ccc(N(C)c2ccc3nc(N)nc(N)c3n2)cc1OC
(A) 52

----------
# Target: Dihydrofolate reductase (Rattus norvegicus, UniProt Q920D2)
# Sequence (Q920D2 whole entry): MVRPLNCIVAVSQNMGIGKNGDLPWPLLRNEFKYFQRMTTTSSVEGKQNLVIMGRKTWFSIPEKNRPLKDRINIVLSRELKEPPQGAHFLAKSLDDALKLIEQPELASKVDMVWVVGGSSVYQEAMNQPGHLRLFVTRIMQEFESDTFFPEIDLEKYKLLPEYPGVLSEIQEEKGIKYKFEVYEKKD
Entries and their measured pIC50 follow.
# reply with the number alone; pIC50 is -log10 of concentration in mol/L

(Q) Supply pIC50 measured with Dihydrofolate reductase (Rattus norvegicus, UniProt Q920D2) for COc1ccccc1S(=O)(=O)c1ccc2nc(N)nc(N)c2n1 .
(A) 5.85

(Q) Please tell me the measured pIC50 for COc1ccc(OC)c(Nc2ccc3nc(N)nc(N)c3n2)c1 ; system: Dihydrofolate reductase (Rattus norvegicus, UniProt Q920D2).
(A) 5.44

(Q) # lookup: Dihydrofolate reductase (Rattus norvegicus, UniProt Q920D2) pIC50, key = COc1ccc(Sc2ccc3nc(N)nc(N)c3n2)cc1OC
(A) 7.74

(Q) Give the observed pIC50 of COc1cc(N(C)c2ccc3nc(N)nc(N)c3n2)cc(OC)c1OC for Dihydrofolate reductase (Rattus norvegicus, UniProt Q920D2).
(A) 8.43

Others:
(Q) Jot down pIC50 (Dihydrofolate reductase (Rattus norvegicus, UniProt Q920D2)) of Nc1nc(N)c2nc(Nc3ccccc3)ccc2n1 .
(A) 6.37

(Q) // fetch pIC50 for COc1cc(Nc2ccc3nc(N)nc(N)c3n2)cc(OC)c1OC ; system: Dihydrofolate reductase (Rattus norvegicus, UniProt Q920D2)
(A) 5.49

(Q) Report value only: pIC50, Dihydrofolate reductase (Rattus norvegicus, UniProt Q920D2), COc1ccc(N(C)c2ccc3nc(N)nc(N)c3n2)cc1
(A) 8.17

(Q) // fetch pIC50; item: COc1ccc(N(C)c2ccc3nc(N)nc(N)c3n2)cc1OC ; system: Dihydrofolate reductase (Rattus norvegicus, UniProt Q920D2)
(A) 9.40

(Q) Please indicate recorded pIC50 of COc1ccc(S(=O)(=O)c2ccc3nc(N)nc(N)c3n2)cc1 measured with Dihydrofolate reductase (Rattus norvegicus, UniProt Q920D2).
(A) 5.70

----------
# Tested on: NCI/ADR-RES
# Measurement Description: inhibition of the growth of breast cancer (MCF7/ADR-RES) cell line
# Assay type: functional
# Measurement Parameters: Homo sapiens
Parameter Measured: GI50

Please review the entries below; each comes with its answer.
(Q) Report measured GI50; entry is CN(c1ccccc1)c1ccc2nc(N)nc(N)c2n1
(A) < 10 nM

(Q) Item COc1ccc(OC)c(N(C)c2ccc3nc(N)nc(N)c3n2)c1 : provide GI50
(A) < 10 nM

(Q) Please look at this compound and report its GI50: COc1cc(N(C)c2ccc3nc(N)nc(N)c3n2)cc(OC)c1OC
(A) 10 nM

(Q) For the compound CN(c1ccc2ccccc2c1)c1ccc2nc(N)nc(N)c2n1 , report GI50.
(A) < 10 nM

(Q) Retrieve GI50 measured for COc1ccc(N(C)c2ccc3nc(N)nc(N)c3n2)cc1OC and print it.
(A) < 10 nM

With those in mind, consider the next compound.
(Q) Give a short answer stating reported GI50 for Nc1nc(N)c2nc(Nc3ccccc3)ccc2n1 .
(A) 2690 nM

----------
# Target: Dihydrofolate reductase (Pneumocystis carinii)
# Sequence (P16184 whole entry): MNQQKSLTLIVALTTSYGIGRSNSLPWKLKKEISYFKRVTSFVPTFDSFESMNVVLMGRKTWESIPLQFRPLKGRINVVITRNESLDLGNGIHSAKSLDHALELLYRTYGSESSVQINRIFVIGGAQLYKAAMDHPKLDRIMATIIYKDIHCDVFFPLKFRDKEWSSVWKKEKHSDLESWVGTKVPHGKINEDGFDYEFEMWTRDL
Consider the cut-off 0.09 µM. If the recorded IC50 is strictly smaller, the label is T; if not, the label is F.

(Q) Hello, is IC50 of the following compound strictly smaller than 0.09 µM? COc1ccc(OC)c(N(C)c2ccc3nc(N)nc(N)c3n2)c1
(A) T

***
(Q) Is the reported IC50 for COc1ccc(N(C)c2ccc3nc(N)nc(N)c3n2)cc1OC strictly below 0.09 µM?
(A) T

(Q) Lab note: IC50 threshold 0.09 µM. Does this compound come in strictly under it? COc1ccc(Sc2ccc3nc(N)nc(N)c3n2)cc1OC
(A) T

(Q) Please state whether IC50 is below 0.09 µM for COc1ccc(Sc2ccc3nc(N)nc(N)c3n2)cc1
(A) F

(Q) Is IC50 strictly under 0.09 µM for the entry COc1ccc(S(=O)(=O)c2ccc3nc(N)nc(N)c3n2)cc1OC ?
(A) F

(Q) Regarding COc1ccc(N(C)c2ccc3nc(N)nc(N)c3n2)cc1 , kindly confirm whether its IC50 is beneath 0.09 µM.
(A) F

(Q) I'd appreciate it if you could check whether COc1cc(Nc2ccc3nc(N)nc(N)c3n2)cc(OC)c1OC has IC50 smaller than 0.09 µM.
(A) F

----------
# Tested on: UO-31
# Measurement Description: Inhibition of the growth of renal cancer(UO-31) cell line at 0.01 uM
# Assay type: functional
# Measurement Parameters: Homo sapiens
inhibition at 0.01 µM values, listed per item
Returns: string containing the numeric result and its unit.

Previously resolved entries follow.
(Q) Look up and state reported inhibition at 0.01 µM for COc1ccc(N(C)c2ccc3nc(N)nc(N)c3n2)cc1
(A) 74%

(Q) Specify inhibition at 0.01 µM for COc1ccc(N(C)c2ccc3nc(N)nc(N)c3n2)cc1OC and stop.
(A) 100%

(Q) Read off the recorded inhibition at 0.01 µM for Nc1nc(N)c2nc(Nc3ccccc3)ccc2n1
(A) 57%

Others:
(Q) Fill in inhibition at 0.01 µM for record CN(c1ccc2ccccc2c1)c1ccc2nc(N)nc(N)c2n1
(A) 54%

(Q) Given COc1ccc(OC)c(N(C)c2ccc3nc(N)nc(N)c3n2)c1 , respond with its inhibition at 0.01 µM.
(A) 100%

----------
# Tested on: NCI-H460
# Measurement Description: inhibition of the growth of non-small-cell lung cancer (NCI-H460) cell line
# Assay type: functional
# Measurement Parameters: Homo sapiens
Here, each record is paired with measured GI50 data.

Guide cases for GI50, answers given:
(Q) Return GI50 for the following compound: COc1ccc(OC)c(N(C)c2ccc3nc(N)nc(N)c3n2)c1
(A) < 10 nM

(Q) Return value of GI50 for input CN(c1ccc2ccccc2c1)c1ccc2nc(N)nc(N)c2n1 , no commentary.
(A) < 10 nM

(Q) Tell me its GI50 given COc1ccc(N(C)c2ccc3nc(N)nc(N)c3n2)cc1OC as the entry.
(A) < 10 nM

(Q) Report GI50 for Nc1nc(N)c2nc(Nc3ccccc3)ccc2n1
(A) 430 nM

(Q) Answer with the recorded GI50 of CN(c1ccccc1)c1ccc2nc(N)nc(N)c2n1 only.
(A) < 10 nM

Now for another entry.
(Q) Specify measured GI50 for COc1cc(N(C)c2ccc3nc(N)nc(N)c3n2)cc(OC)c1OC .
(A) < 10 nM

----------
# Tested on: M14
# Measurement Description: inhibition of the growth of melanoma cancer (M14) cell line
# Assay type: functional
# Measurement Parameters: Homo sapiens
Parameter Measured: GI50 (nM)
Numbers only here, please. The scale is nM.

(Q) Param request: GI50 | system M14 | item Nc1nc(N)c2nc(Nc3ccccc3)ccc2n1
(A) 1070

(Q) State GI50 (M14) of CN(c1ccccc1)c1ccc2nc(N)nc(N)c2n1 .
(A) 10

Lab note: next compound to report on.
(Q) Please indicate recorded GI50 of COc1cc(N(C)c2ccc3nc(N)nc(N)c3n2)cc(OC)c1OC measured with M14.
(A) 20
